experiment: M. tuberculosis growth inhibition, HTS (AID 449762);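 also: bacterial growth assessed after seven days of incubation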; conditions: M. tuberculosis H37Rv growth inhibition, 7H9 media; at 25 µM; stronger effect = higher value
The campaign covered roughly 330,000 compounds. About 1,900 (0.58%) were called active. Inconclusive results (about 4%) are left out. A selection follows. Measured potencies and affinities stand elsewhere.
result.type: inhibition (%)

[
  {
    "molecule": "CCCc1nnc(NC(=O)CCC(=O)N2CCN(c3nc(C)cc(C)n3)CC2)s1",
    "result.type": "inhibition",
    "recorded.number": 0.06
  },
  {
    "molecule": "CCN(C(=O)Cn1ccc(C(F)(F)F)n1)c1c(N)n(Cc2ccccc2)c(=O)[nH]c1=O",
    "result.type": "inhibition",
    "recorded.number": -10
  },
  {
    "molecule": "COc1cc2ncnc(NCc3ccccc3F)c2cc1OC",
    "result.type": "inhibition",
    "recorded.number": 4.17
  },
  {
    "molecule": "Cc1ccccc1NC(=O)Cn1c(C)nc2ccc(NC(=O)C3CC3)cc2c1=O",
    "result.type": "inhibition",
    "recorded.number": 2.87
  },
  {
    "molecule": "CC(=O)N(C(C)=O)c1c(C#N)c(C)n(-c2ccccc2)c1C(=O)c1ccccc1",
    "result.type": "inhibition",
    "recorded.number": -0.27
  },
  {
    "molecule": "CCOC(=O)[C@H]1[C@H]2COc3ccc(Br)cc3[C@@H]2N2C(=O)N(c3ccccc3)C(=O)[C@@]12C",
    "result.type": "inhibition",
    "recorded.number": 6.24
  },
  {
    "molecule": "Cc1cc(C)c2c(CC(=O)NNC(=O)c3ccccc3)coc2c1",
    "result.type": "inhibition",
    "recorded.number": -11.5
  },
  {
    "molecule": "COc1ccc(-c2nc3c(c(=O)[nH]c(=O)n3Cc3ccccc3)n2CCO)cc1",
    "result.type": "inhibition",
    "recorded.number": -6.32
  },
  {
    "molecule": "CCn1c(SCC(=O)N/N=C/c2ccccc2OCC(=O)O)nnc1-c1ccc(OC)cc1",
    "result.type": "inhibition",
    "recorded.number": 1.34
  },
  {
    "molecule": "COc1ccc(/C=C/C(=O)Nc2cc(S(=O)(=O)N3CCCCC3)ccc2N2CCCCC2)cc1OC",
    "result.type": "inhibition",
    "recorded.number": 6.87
  },
  {
    "molecule": "CCc1cccc(NS(=O)(=O)c2ccc3c(c2)N(C)CCO3)c1",
    "result.type": "inhibition",
    "recorded.number": 3.34
  },
  {
    "molecule": "CCN1CCN(c2ccc(S(=O)(=O)N3CCCCC3)cc2NC(=O)/C=C/c2ccc([N+](=O)[O-])cc2)CC1",
    "result.type": "inhibition",
    "recorded.number": 67.1
  },
  {
    "molecule": "O=C(O)c1ccccc1/C=N/Nc1ccc(S(=O)(=O)N2CCCC2)cc1[N+](=O)[O-]",
    "result.type": "inhibition",
    "recorded.number": -1.83
  },
  {
    "molecule": "COc1cccc(N(C(=O)CNC(=O)c2ccco2)C(C(=O)NC2CCCC2)c2ccncc2)c1 (stereo not drawn)",
    "result.type": "inhibition",
    "recorded.number": 0.28
  },
  {
    "molecule": "COc1cc(-c2nnc(SCC(=O)Nc3ccc(C(=O)O)cc3)o2)cc(OC)c1OC",
    "result.type": "inhibition",
    "recorded.number": -0.72
  },
  {
    "molecule": "COc1cccc(NC(=O)CN(C)C(=O)c2c(C)nn(CC(C)C)c2Cl)c1",
    "result.type": "inhibition",
    "recorded.number": -7.79
  },
  {
    "molecule": "COc1ccc(N(CC(=O)NC2CCCC2)S(=O)(=O)c2c(C)[nH]c(=O)[nH]c2=O)cc1",
    "result.type": "inhibition",
    "recorded.number": -3.45
  },
  {
    "molecule": "Cn1c(C(=O)N(Cc2ccccc2)Cc2ccccn2)cc2sccc21",
    "result.type": "inhibition",
    "recorded.number": -2.09
  },
  {
    "molecule": "CCCCCc1ccc(-c2cn(Cc3ccc(C)cc3)nn2)cc1",
    "result.type": "inhibition",
    "recorded.number": 2.43
  },
  {
    "molecule": "COc1ccc(OC)c(C2C=C(c3ccc(C)c(C)c3)Nc3nnnn32)c1 (stereo not drawn)",
    "result.type": "inhibition",
    "recorded.number": 4.57
  },
  {
    "molecule": "S=C(Nc1ccccc1Cl)N(CCCN1CCOCC1)Cc1ccco1",
    "result.type": "inhibition",
    "recorded.number": 0.76
  },
  {
    "molecule": "CCN(CCNC(=O)C1CC(=O)N(CCc2ccccc2)C1)c1ccccc1 (stereo not drawn)",
    "result.type": "inhibition",
    "recorded.number": -5.61
  },
  {
    "molecule": "C[C@]12c3[nH]c4ccccc4c3CCN1C(=O)C(CC(=O)NCC13CC4CC(CC(C4)C1)C3)C[C@@H]2C(=O)N1CCCCC1 (stereo partly drawn)",
    "result.type": "inhibition",
    "recorded.number": 21.5
  },
  {
    "molecule": "Cn1c(=O)c2c(nc(NCc3ccc4c(c3)OCO4)n2C)n(C)c1=O",
    "result.type": "inhibition",
    "recorded.number": -2.77
  },
  {
    "molecule": "Cc1nc2ncnn2c(Nc2ccc3c(c2)OCCO3)c1C",
    "result.type": "inhibition",
    "recorded.number": 6.9
  },
  {
    "molecule": "CC1(c2nnc(-c3ccccc3)o2)CC(c2ccncc2)=NO1 (stereo not drawn)",
    "result.type": "inhibition",
    "recorded.number": 10.1
  },
  {
    "molecule": "CCn1c(C)nc2cc(C(=O)OCCC(F)(F)F)ccc21",
    "result.type": "inhibition",
    "recorded.number": -1.06
  },
  {
    "molecule": "Cc1ccc(S(=O)(=O)N2CCN(c3ccc(C(F)(F)F)cc3[N+](=O)[O-])CC2)cc1",
    "result.type": "inhibition",
    "recorded.number": 16
  }
]

---

Attribute: inhibition
test: M. tuberculosis growth inhibition, HTS (AID 449762);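 also: bacterial growth assessed after seven days of incubation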; conditions: M. tuberculosis H37Rv growth inhibition, 7H9 media; at 25 µM; stronger effect = higher value
Among all 330,000 compounds or so, about 1,900 (0.58%) were called active. About 4% were inconclusive and are not listed. Only a sample is shown. Measured potencies and affinities stand elsewhere.
result.type: inhibition (%)

[
  {
    "molecule": "COc1ccc2cc1Oc1ccc(cc1)CC1c3c(cc(OC)c4c3Oc3cc5c(cc3O4)CCNC5C2)CCN1C (stereo not given)",
    "result.type": "inhibition",
    "unit.abbreviation": "%",
    "recorded.number": 2.26
  },
  {
    "molecule": "c1ccc(C[C@H]2CN=C(Nc3ccccc3)N2CCC2CCCC2)cc1",
    "result.type": "inhibition",
    "unit.abbreviation": "%",
    "recorded.number": 30
  },
  {
    "molecule": "Cn1cnc([N+](=O)[O-])c1Sc1ccccc1",
    "result.type": "inhibition",
    "unit.abbreviation": "%",
    "recorded.number": -3.64
  },
  {
    "molecule": "Cc1cc(NC(=O)C(Cl)(Cl)Cl)no1",
    "result.type": "inhibition",
    "unit.abbreviation": "%",
    "recorded.number": -0.63
  },
  {
    "molecule": "CN(C(=O)CO/N=C/c1ccc(Cl)cc1)c1ccccc1",
    "result.type": "inhibition",
    "unit.abbreviation": "%",
    "recorded.number": -0.18
  }
]

---

experiment: M. tuberculosis growth inhibition, HTS (AID 449762);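 also: bacterial growth assessed after seven days of incubation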; conditions: M. tuberculosis H37Rv growth inhibition, 7H9 media; at 25 µM; stronger effect = higher value
Hit rate of the full screen: of about 330,000 compounds, about 1,900 (0.58%) were called active. Inconclusive results (about 4%) are left out. Only a sample is shown. Results with a measured potency or affinity are listed apart.
Attribute: inhibition
result.type: inhibition (%)

[
  {
    "molecule": "CCCCNS(=O)(=O)c1ccc(OC)c2ncccc12",
    "recorded.number": -7.49
  },
  {
    "molecule": "Oc1ccc(Nc2nc(-c3ccc(O)cc3)cs2)cc1",
    "recorded.number": 4.52
  },
  {
    "molecule": "COc1ccc(NC(=O)CSc2nc(N)c(C(=O)Nc3ccc(N(C)C)cc3)s2)cc1",
    "recorded.number": 15.8
  },
  {
    "molecule": "O=C(NCc1ccc2c(c1)OCO2)C1CCC(CNS(=O)(=O)c2ccc(Cl)cc2)CC1 (stereo not given)",
    "recorded.number": -12
  },
  {
    "molecule": "C=CCNC(=S)NNC(=O)CCC(O)COCCC(C)C (stereo not given)",
    "recorded.number": 1.2
  }
]
